# S.I. ATCC 30,808 (selectivity index CC50/IC50) listing for each entry below
- Tested on: N. fowleri ATCC® 30,808™ trophozoites
- EXPERIMENT NOTES: In vitro activity against trophozoites, alamarBlue, 48 h
- Format: cell-based, Naegleria fowleri
- PROTOCOL CONDITIONS: CC50 J774A.1 / IC50 ATCC 30,808 trophozoites
I'd appreciate a reply containing only the number, no unit.

CCCCCCCCCCCCCCCCOP(=O)([O-])OCC[N+](C)(C)C [MILTEFOSINE, miltefosine]	3.3
CC(C)N1CCN(c2ccc(OCC3COC(Cn4cncn4)(c4ccc(Cl)cc4Cl)O3)cc2)CC1 (stereo not shown) [TERCONAZOLE, terconazole]	22.99

Next molecule, S.I. ATCC 30,808 (selectivity index CC50/IC50) to be filled in.
[Q] Could you tell me which S.I. ATCC 30,808 (selectivity index CC50/IC50) is on file for CCCN1CCC=C(c2cc(-c3ccc(C)cc3)no2)C1 [PD-144418] ?
[A] 10.35

---

- Test system: N. fowleri ATCC® 30,808™ cysts
- EXPERIMENT NOTES: microbe, parasite or virus in culture
- Assay type: cell-based
- PROTOCOL CONDITIONS: Naegleria fowleri, ATCC30, read-out: N. fowleri ATCC 30,808 IC50, cyst stage
OUTCOME MEASURE: pIC50
// pIC50 here means minus log10 of the molar concentration (mol/L)

Example results:
CCCCCCCCCCCCCCCCOP(=O)([O-])OCC[N+](C)(C)C [MILTEFOSINE, miltefosine]	4.67
CCCN1CCC=C(c2cc(-c3ccc(C)cc3)no2)C1 [PD-144418]	4.98
CC(C)N1CCN(c2ccc(OCC3COC(Cn4cncn4)(c4ccc(Cl)cc4Cl)O3)cc2)CC1 (stereo not shown) [TERCONAZOLE, terconazole]	5.61

Next molecule, pIC50 to be filled in.
[Q] Please tell me: pIC50 of C[C@@H]1[C@H](O)[C@@H](C)/C=C/C=C/C=C/C=C/C=C/C=C/C=C/[C@H](O[C@@H]2O[C@H](C)[C@@H](O)[C@H](N)[C@@H]2O)C[C@@H]2O[C@](O)(C[C@@H](O)C[C@@H](O)[C@H](O)CC[C@@H](O)C[C@@H](O)CC(=O)O[C@H]1C)C[C@H](O)[C@H]2C(=O)O [AMPHOTERICIN B, amphotericin B] , system N. fowleri ATCC® 30,808™ cysts?
[A] 6.28
